Source: patent EP4768499A1

- Protocol Description: Membrane permeability test using Caco-2 cells with preincubation
- Assay type: in vitro ADME
- Test Parameters: Caco-2; preincubation 20 to 24 hours; Apical FaSSIF/HBSS pH 6.0, Basal HBSS 4% BSA pH 7.4; 180 minutes; read-out: Caco2 Papp
Positions of bridges follow the written chain, without caps; N, C: chain ends. Non-standard residues stand in square brackets, D forms with d. Residues, ends and D or L forms follow the SMILES beside them. *: point of attachment. NMeF = CN[C@@H](Cc1ccccc1)C(=O)O; NMeI = CC[C@H](C)[C@H](NC)C(=O)O; NMeD = CN[C@@H](CC(=O)O)C(=O)O; NMeL = CN[C@@H](CC(C)C)C(=O)O; NMeV = CN[C@H](C(=O)O)C(C)C; d(β3hA) = C[C@@H](N)CC(=O)O; NMeA = CN[C@@H](C)C(=O)O; Piperidide = C1CCN(*)CC1; Sar = CNCC(=O)O; tBu = CC(C)(C)*
Papp A→B values by entry

Compound: CC[C@H](C)[C@@H]1NC(=O)[C@H](CC(C)C)N(C)C(=O)[C@H](C)N(C)C(=O)[C@H](C)N(C)C(=O)C[C@@H](C)NC(=O)[C@H](CC(C)C)NC(=O)[C@H](CC(C)C)N(C)C(=O)CN(C)C(=O)[C@H]([C@@H](C)O)NC(=O)[C@H]([C@@H](C)CC)N(C)C(=O)[C@H](CC(C)C)N(C)C(=O)[C@H](C(C)C)NC(=O)[C@H](Cc2ccccc2)N(C)C1=O [pd134] (cyclo(I[NMeF]V[NMeL][NMeI]T[Sar][NMeL]L[d(β3hA)][NMeA][NMeA][NMeL]))
Papp A→B, ×10⁻⁶ cm/s: 0.75

Compound: CC(C)C[C@@H]1NC(=O)[C@H](CC(C)C)N(C)C(=O)[C@H]([C@@H](C)O)NC(=O)[C@H](C(C)C)N(C)C(=O)[C@H](Cc2ccccc2)N(C)C(=O)[C@@H](C(C)C)NC(=O)C[C@@H](C(=O)N2CCCCC2)N(C)C(=O)[C@H](C)N(C)C(=O)[C@H](Cc2ccccc2)N(C)C(=O)[C@H](C)NC(=O)[C@H](COC(C)(C)C)NC(=O)[C@H](CC(C)C)N(C)C(=O)CN(C)C1=O [pd158] ([dV][NMeF][NMeV]T[NMeL]L[Sar][NMeL]S(tBu)A[NMeF][NMeA][NMeD]-Piperidide; lactam N-13)
Papp A→B, ×10⁻⁶ cm/s: 0.44

###

- Protocol Description: Metabolic stability test: liver microsomal stability assay
- Type: in vitro ADME, mouse
- Test Parameters: male, pH 7.4; mouse liver microsomes 0.5 mg protein/mL, compound 1 µM, presence of NADPH; read-out: Mouse Hepatic Microsome CLh,int NADPH(+)
Positions of bridges follow the written chain, without caps; N, C: chain ends. Non-standard residues stand in square brackets, D forms with d. Residues, ends and D or L forms follow the SMILES beside them. *: point of attachment. NMeF = CN[C@@H](Cc1ccccc1)C(=O)O; NMeI = CC[C@H](C)[C@H](NC)C(=O)O; NMeT = CN[C@H](C(=O)O)[C@@H](C)O; NMeD = CN[C@@H](CC(=O)O)C(=O)O; NMeL = CN[C@@H](CC(C)C)C(=O)O; NMeV = CN[C@H](C(=O)O)C(C)C; d(β3hA) = C[C@@H](N)CC(=O)O; NMeA = CN[C@@H](C)C(=O)O; Piperidide = C1CCN(*)CC1; dNMeA = CN[C@H](C)C(=O)O; Abu = CC[C@H](N)C(=O)O; NBuGly = CCCCNCC(=O)O; βAla = NCCC(=O)O; Sar = CNCC(=O)O; tBu = CC(C)(C)*

Compound: CC[C@H](C)[C@@H]1NC(=O)[C@@H]2CCCN2C(=O)[C@H](C(C)C)N(C)C(=O)[C@@H](C)N(C)C(=O)C[C@@H](C)NC(=O)[C@H](C(C)C)N(C)C(=O)[C@H](Cc2ccccc2)N(C)C(=O)[C@H](COC(C)(C)C)NC(=O)[C@H](CC(C)C)N(C)C(=O)[C@H](C)N(C)C(=O)[C@H](CC(C)C)N(C)C(=O)[C@H]([C@@H](C)O)NC(=O)[C@H](Cc2ccccc2)N(C)C1=O [pd136] (cyclo(I[NMeF]T[NMeL][NMeA][NMeL]S(tBu)[NMeF][NMeV][d(β3hA)][dNMeA][NMeV]P))
microsomal CLint at 1 µM (µL/min/mg): 27.2
--
Compound: CC[C@@H]1NC(=O)[C@H](C)N(C)C(=O)[C@H](CC(C)C)N(C)C(=O)[C@H]([C@@H](C)O)N(C)C(=O)[C@H](CC(C)C)N(C)C(=O)CCNC(=O)[C@H](Cc2ccccc2)N(C)C(=O)CN(C)C(=O)C[C@@H](C(=O)N2CCCCC2)NC(=O)[C@H](C(C)C)N(C)C(=O)[C@H](C)N(C)C(=O)[C@@H]2CCCN2C(=O)[C@H](C(C)C)NC(=O)[C@H](Cc2ccccc2)N(C)C1=O [pd005] ([Sar][NMeF][βAla][NMeL][NMeT][NMeL][NMeA][Abu][NMeF]VP[NMeA][NMeV]D-Piperidide; lactam N-14)
microsomal CLint at 1 µM (µL/min/mg): 1.4
--
Compound: CCCCN1CC(=O)N[C@@H]([C@@H](C)CC)C(=O)N(C)[C@@H](CC(C)C)C(=O)N[C@H](C(=O)N2CCCCC2)CC(=O)N(C)[C@@H](C)C(=O)N(C)[C@@H](CC(C)C)C(=O)N[C@@H]([C@@H](C)O)C(=O)N(C)[C@@H](Cc2ccccc2)C(=O)N[C@@H](CC)C(=O)N(C)[C@@H](Cc2ccccc2)C(=O)N[C@@H](CC(C)C)C(=O)N(C)[C@@H]([C@@H](C)CC)C(=O)N[C@@H](CC(C)C)C1=O [pd103] ([NMeA][NMeL]T[NMeF][Abu][NMeF]L[NMeI]L[NBuGly]I[NMeL]D-Piperidide; lactam N-13)
microsomal CLint at 1 µM (µL/min/mg): 25.5
--
Compound: CC[C@@H]1NC(=O)[C@H](Cc2ccccc2)N(C)C(=O)[C@H]([C@@H](C)O)NC(=O)[C@H](CC(C)C)N(C)C(=O)[C@H](C)N(C)C(=O)C[C@@H](C(=O)N2CCCCC2)N(C)C(=O)[C@H](CC(C)C)N(C)C(=O)[C@H]([C@@H](C)CC)N(C)C(=O)CN(C)C(=O)[C@H](CC(C)C)NC(=O)[C@H](Cc2ccccc2)N(C)C(=O)[C@H](CC(C)C)N(C)C(=O)[C@H]([C@@H](C)CC)N(C)C1=O [pd167] ([NMeA][NMeL]T[NMeF][Abu][NMeI][NMeL][NMeF]L[Sar][NMeI][NMeL][NMeD]-Piperidide; lactam N-13)
microsomal CLint at 1 µM (µL/min/mg): 35.9
